- assayTarget: human ether-à-go-go-related gene (hERG) potassium channel (human, UniProt Q12809);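 also: peak tail current of the secondary pulse compared with the same well before compound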
- Sequence (Q12809 whole entry, looked up): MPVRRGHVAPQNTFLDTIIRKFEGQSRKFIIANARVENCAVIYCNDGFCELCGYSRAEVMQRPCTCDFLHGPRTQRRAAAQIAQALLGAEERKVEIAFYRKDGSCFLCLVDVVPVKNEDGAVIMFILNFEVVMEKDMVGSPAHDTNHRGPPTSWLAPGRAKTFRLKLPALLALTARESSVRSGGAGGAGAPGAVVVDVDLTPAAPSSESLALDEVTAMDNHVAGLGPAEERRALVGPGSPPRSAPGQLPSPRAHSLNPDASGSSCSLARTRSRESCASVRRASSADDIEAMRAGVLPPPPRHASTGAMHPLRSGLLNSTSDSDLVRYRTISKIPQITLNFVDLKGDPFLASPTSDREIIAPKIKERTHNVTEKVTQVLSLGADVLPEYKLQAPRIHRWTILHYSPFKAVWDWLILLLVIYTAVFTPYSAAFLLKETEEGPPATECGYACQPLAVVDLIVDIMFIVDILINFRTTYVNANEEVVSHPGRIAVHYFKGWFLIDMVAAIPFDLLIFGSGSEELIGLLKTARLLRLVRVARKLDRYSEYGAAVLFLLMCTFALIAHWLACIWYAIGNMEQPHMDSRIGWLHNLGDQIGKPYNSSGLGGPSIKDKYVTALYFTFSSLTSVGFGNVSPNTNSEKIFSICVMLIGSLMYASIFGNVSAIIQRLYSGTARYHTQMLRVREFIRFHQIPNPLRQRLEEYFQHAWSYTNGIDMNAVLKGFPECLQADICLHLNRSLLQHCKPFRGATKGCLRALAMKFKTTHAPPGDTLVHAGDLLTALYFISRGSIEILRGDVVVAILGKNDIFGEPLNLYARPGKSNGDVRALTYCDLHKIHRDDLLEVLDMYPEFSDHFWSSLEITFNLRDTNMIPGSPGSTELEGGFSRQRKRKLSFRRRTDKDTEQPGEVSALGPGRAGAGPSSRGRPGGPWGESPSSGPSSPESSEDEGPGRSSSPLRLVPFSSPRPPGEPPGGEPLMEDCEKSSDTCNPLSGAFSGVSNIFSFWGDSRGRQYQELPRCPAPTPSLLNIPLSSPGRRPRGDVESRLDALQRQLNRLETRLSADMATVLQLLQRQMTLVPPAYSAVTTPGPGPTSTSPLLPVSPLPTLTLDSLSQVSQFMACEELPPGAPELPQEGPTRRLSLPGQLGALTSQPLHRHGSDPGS
- test: primary screen, population patch clamp on CHO cells stably expressing hERG; higher = less effect of the substance
Screen size: about 310,000 compounds; about 14,000 (4.5%) showed an effect of 50% or more. Effects have a minus sign here. Many of the other results were omitted from the sample, so strong results are more common in it than they were.
So I've got a bunch of compounds here, and I need their hERG current change (%, negative = inhibition) at 10uM values.
Numbers only, in %.

Worked examples follow.
>>> print(df.to_string())
                                   compound  unittag  experimentalresult
0  CCn1cc(CN2CCC(n3nccc3NC(=O)c3ccccc3C)CC2)c(C)n1        %               -37.9
1  COc1ccccc1C(=O)Nc1ccnn1C1CCN(Cc2cnn(C)c2)CC1        %               -55.6
2  CCn1cc(CN2CCC(n3nccc3NC(=O)Cc3ccccc3)CC2)cn1        %                7.27
3  COC(C(=O)Nc1ccnn1C1CCN(Cc2cnn(C(C)C)c2)CC1)c1ccccc1 (stereo not drawn)        %               -2.06
4  CC(C)n1cc(CN2CCC(n3nccc3NC(=O)Cc3ccccc3)CC2)cn1        %                7.82
5  COc1ccc(C(=O)Nc2ccnn2C2CCN(Cc3cnn(C)c3)CC2)cc1        %                6.81
6  Cc1ccccc1C(=O)Nc1ccnn1C1CCN(Cc2cnn(C(C)C)c2)CC1        %               -72.3
7  CCn1cc(CN2CCC(n3nccc3NC(=O)c3ccc(OC)cc3)CC2)cn1        %               -4.16

hERG current change (%, negative = inhibition) at 10uM for `Cc1ccccc1C(=O)Nc1ccnn1C1CCN(Cc2cnn(C)c2)CC1` ?
-26.5
